# fold change (FC) values compiled below
- Test system: Nonstructural protein 5A (Hepatitis C virus), Q5L478 [Y93H]
- Sequence (whole entry): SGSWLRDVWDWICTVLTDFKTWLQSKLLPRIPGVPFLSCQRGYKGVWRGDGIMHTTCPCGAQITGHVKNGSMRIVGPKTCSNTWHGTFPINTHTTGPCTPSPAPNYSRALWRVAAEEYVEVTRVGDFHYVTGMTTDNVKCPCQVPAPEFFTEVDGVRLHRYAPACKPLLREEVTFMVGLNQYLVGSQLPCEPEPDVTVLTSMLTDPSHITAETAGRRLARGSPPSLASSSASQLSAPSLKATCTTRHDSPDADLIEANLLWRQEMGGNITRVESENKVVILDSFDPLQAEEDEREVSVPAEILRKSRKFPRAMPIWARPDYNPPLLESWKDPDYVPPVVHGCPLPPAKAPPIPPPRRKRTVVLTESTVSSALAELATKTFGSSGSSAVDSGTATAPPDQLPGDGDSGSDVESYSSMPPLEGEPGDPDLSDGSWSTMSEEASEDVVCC
- test_name: Inhibition of NS5A Y93H mutant in HuH7 cell infected HCV genotype 1b Con1 assessed as decrease in viral replication after 4 days by luciferase reporter gene assay relative to wild type protein
- condition_summary: Hepatitis C virus (isolate Con1)
Field format: numeric only.

compound_string	experimental_readout	measured
COC(=O)N[C@H](C(=O)N1CCC[C@H]1c1nc2ccc([C@H]3CC[C@H](c4ccc5nc([C@@H]6CCCN6C(=O)[C@@H](NC(=O)OC)C(C)C)[nH]c5c4)N3c3cc(F)c(N4CCC(c5ccccc5)CC4)c(F)c3)cc2[nH]1)C(C)C	fold change (FC)	1
COC(=O)N[C@H](C(=O)N1CCC[C@H]1c1nc2cc(F)c([C@H]3CC[C@H](c4cc5[nH]c([C@@H]6CCCN6C(=O)[C@@H](NC(=O)OC)[C@@H](C)OC)nc5cc4F)N3c3cc(F)c(N4CCC(c5ccccc5)CC4)c(F)c3)cc2[nH]1)[C@@H](C)OC	fold change (FC)	1

Next up:
Respond only with fold change (FC) recorded for COC(=O)N[C@H](C(=O)N1CCC[C@H]1c1nc2ccc([C@H]3CC[C@H](c4ccc5nc([C@@H]6CCCN6C(=O)[C@@H](NC(=O)OC)C(C)C)[nH]c5c4)N3c3ccc(Cl)cc3)cc2[nH]1)C(C)C
1
